- assay target: T1, RILP(1–401)::Strep-tag II (human, UniProt Q96NA2 1-401)
- T1 construct: also called RILP::Strep-tag II; source: Sf21 insect cells (baculovirus), purified (Strep-Tactin Sepharose); not shown: Strep-tag II (after linker GSGSGR), C-terminal, kept
- T1 sequence (looked up): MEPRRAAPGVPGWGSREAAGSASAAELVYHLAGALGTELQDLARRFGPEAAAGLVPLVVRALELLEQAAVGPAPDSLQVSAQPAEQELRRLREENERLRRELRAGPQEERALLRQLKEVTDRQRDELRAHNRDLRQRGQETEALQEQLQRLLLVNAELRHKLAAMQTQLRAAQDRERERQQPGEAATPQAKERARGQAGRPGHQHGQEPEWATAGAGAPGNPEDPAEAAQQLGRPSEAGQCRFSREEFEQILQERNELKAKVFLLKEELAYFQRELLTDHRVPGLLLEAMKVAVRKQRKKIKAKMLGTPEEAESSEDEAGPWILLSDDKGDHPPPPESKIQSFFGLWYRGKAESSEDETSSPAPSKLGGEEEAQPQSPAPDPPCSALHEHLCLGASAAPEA
- method description: pull-down; GST::LIC::6xHis (50 pmol) with 50 or 250 pmol adaptor and glutathione agarose, 1 h at 4°C, 150 μL of 50 mM HEPES, 100 mM NaCl, 5 mM DTT, pH 7.5, 0.1% Tween 20; Coomassie staining and immunoblot against Strep-tag II
- stated conditions: both partners purified
metric: binding result

{"binder": "GST::LIC1(402–471)::6xHis (domain or fragment, human, single N-terminal tryptophan added in the construct; human dynein light intermediate chain 1 (DYNC1LI1), residues 402-471; source: E. coli BL21, purified (glutathione agarose, Ni-NTA; dialysis or SEC); not shown: GST, N-terminal, kept; 6xHis (after linker GSGSG), C-terminal, kept) WPGGSPRTPNRSVSSNVASVSPIPAGSKKIDPNMKAGATSEGVLANFFNSLLSKKTGSPGGPGVSGGSPAG", "metric": "binding result", "experimental value": "binds"}
{"binder": "GST::LIC2(375–492)::6xHis (domain or fragment, human, single N-terminal tryptophan added in the construct; also called LIC2-C; source: E. coli BL21, purified (glutathione agarose, Ni-NTA; dialysis or SEC); not shown: GST, N-terminal, kept; 6xHis (after linker GSGSG), C-terminal, kept) WATPTRASESPARGPSGSPRTQGRGGPASVPSSSPGTSVKKPDPNIKNNAASEGVLASFFNSLLSKKTGSPGSPGAGGVQSTAKKSGQKTVLSNVQEELDRMTRKPDSMVTNSSTENEA", "metric": "binding result", "experimental value": "binds"}

Source: paper PMC6336354
